tested on: Salmonella enterica serovar Typhimurium SL1344; test: normalized intracellular growth (luminescence, IQM-normalized) in RAW264.7 macrophages (fraction of plate interquartile mean); higher = more bacterial growth (less inhibition); settings: 10 µM, time point: T3 (3 h)
In all, about 1,600 compounds were measured (“normalized intracellular growth (luminescence, IQM-normalized) in RAW264.7 macrophages”: median about 1, lowest 2% from about 0.43 on). This excerpt belongs to a sample that is enriched for the lowest values.

compound: C[C@H]1O[C@@H](O[C@H]2[C@@H](O)C[C@H](O[C@H]3[C@@H](O)C[C@H](O[C@H]4CC[C@@]5(C)[C@H](CC[C@@H]6[C@@H]5CC[C@]5(C)[C@@H](C7=CC(=O)OC7)CC[C@]65O)C4)O[C@@H]3C)O[C@@H]2C)C[C@H](O)[C@@H]1O
normalized intracellular growth: 1.03

compound: CC[C@H]1OC(=O)[C@H](C)[C@@H](O[C@H]2C[C@@](C)(OC)[C@@H](O)[C@H](C)O2)[C@H](C)[C@@H](O[C@@H]2O[C@H](C)C[C@H](N(C)C)[C@H]2O)[C@](C)(O)C[C@@H](C)/C(=N\OCOCCOC)[C@H](C)[C@@H](O)[C@]1(C)O
normalized intracellular growth: 1.06

compound: NCC(=O)CCC(=O)O
normalized intracellular growth: 1.09

compound: CC1CCc2cc(F)cc3c(=O)c(C(=O)O)cn1c23 (configuration not stated)
normalized intracellular growth: 0.937

compound: CC(=O)c1ccc2c(c1)N(CCCN1CCN(CCO)CC1)c1ccccc1S2
normalized intracellular growth: 1.04

compound: NC(=O)c1ccccc1O
normalized intracellular growth: 1.04

compound: COc1ccc(C(=O)c2ccc(C)cc2)c(O)c1
normalized intracellular growth: 1.02

compound: O=c1[nH]c(=O)n([C@H]2C[C@H](O)[C@@H](CO)O2)cc1I
normalized intracellular growth: 1

compound: CCc1cn([C@H]2C[C@H](O)[C@@H](CO)O2)c(=O)[nH]c1=O
normalized intracellular growth: 1.09

compound: CC(=O)N[C@@H]([C@@H](O)[C@H](O)[C@H](O)CO)[C@@H](O)CC(=O)C(=O)O
normalized intracellular growth: 1.02

compound: Nc1nc(F)nc2c1ncn2[C@@H]1O[C@H](COP(=O)(O)O)[C@@H](O)[C@@H]1O
normalized intracellular growth: 0.982

compound: CC1CCc2c(N3CCC(O)CC3)c(F)cc3c(=O)c(C(=O)O)cn1c23 (configuration not stated)
normalized intracellular growth: 0.894

----------
tested on: Salmonella enterica serovar Typhimurium SL1344; test: normalized intracellular growth (luminescence, IQM-normalized) in RAW264.7 macrophages (fraction of plate interquartile mean); higher = more bacterial growth (less inhibition); conditions: 10 µM, time point: T3 (3 h)
In all, about 1,600 compounds were measured (“normalized intracellular growth (luminescence, IQM-normalized) in RAW264.7 macrophages”: median about 1, lowest 2% from about 0.43 on). Many of the other results were omitted from the sample, so the lowest values are more common in it than they were.

compound: CSCC[C@H](NC(=O)[C@H](Cc1c[nH]c2ccccc12)NC(=O)CCNC(=O)OC(C)(C)C)C(=O)N[C@@H](CC(=O)O)C(=O)N[C@@H](Cc1ccccc1)C(N)=O
normalized intracellular growth: 1
--
compound: N[C@@H](CCC(=O)N[C@@H](CS)C(=O)NCC(=O)O)C(=O)O
normalized intracellular growth: 1.1
--
compound: C=NC(C(=O)NC1C(=O)N2C1SC(C)(C)C2C(=O)O)c1ccccc1 (centres undefined)
normalized intracellular growth: 0.959
--
compound: Cc1cc(C(C)(C)C)c(O)c(C(C)(C)C)c1
normalized intracellular growth: 1.06
--
compound: CN(C)CCc1c[nH]c2ccc(CS(=O)(=O)N3CCCC3)cc12
normalized intracellular growth: 0.989
--
compound: C[N+](C)(C)CC(O)CC(=O)[O-] (centres undefined)
normalized intracellular growth: 0.978
--
compound: NS(=O)(=O)c1ccc(C(=O)O)cc1
normalized intracellular growth: 1.01
--
compound: NC(=O)NS(=O)(=O)c1ccc(N)cc1
normalized intracellular growth: 0.98
--
compound: CCCc1nc(C(C)(C)O)c(C(=O)O)n1Cc1ccc(-c2ccccc2-c2nnn[nH]2)cc1
normalized intracellular growth: 1.03
--
compound: CCCc1nc(C(C)(C)O)c(C(=O)OCc2oc(=O)oc2C)n1Cc1ccc(-c2ccccc2-c2nnn[nH]2)cc1
normalized intracellular growth: 1
--
compound: CC1=C(C(=O)O)N2C(=O)[C@@H](NC(=O)[C@H](N)c3ccccc3)[C@H]2SC1
normalized intracellular growth: 1.02
--
compound: CO/N=C(\C(=O)N[C@@H]1C(=O)N2C(C(=O)O)=C(CSC(=O)c3ccco3)CS[C@H]12)c1csc(N)n1
normalized intracellular growth: 1
--
compound: C[N+]1(C)[C@@H]2CC[C@H]1C[C@@H](OC(=O)C(O)c1ccccc1)C2 (some centres undefined)
normalized intracellular growth: 0.968
--
compound: C[C@@H]1O[C@@H](OC[C@H]2O[C@@H](Oc3c(-c4ccc(OCCO)c(OCCO)c4)oc4cc(OCCO)cc(O)c4c3=O)[C@H](O)[C@@H](O)[C@@H]2O)[C@H](O)[C@H](O)[C@H]1O
normalized intracellular growth: 0.951

----------
test system: Salmonella enterica serovar Typhimurium SL1344; experiment: normalized intracellular growth (luminescence, IQM-normalized) in RAW264.7 macrophages (fraction of plate interquartile mean); higher = more bacterial growth (less inhibition); conditions: 10 µM, time point: Tfinal (~6 h)
In all, about 1,600 compounds were measured (“normalized intracellular growth (luminescence, IQM-normalized) in RAW264.7 macrophages”: median about 1, lowest 2% from about 0.43 on). Only a selection was taken, and the lowest values are over-represented in it overall.
Recorded measurements of normalized intracellular growth, one per entry

compound: CC[n+]1c(-c2ccccc2)c2cc(N)ccc2c2ccc(N)cc21
normalized intracellular growth: 1.13
//
compound: CCC/C=C\C=C/C(=O)N[C@@H](CC(N)=O)C(=O)NC(CC(N)=O)C(=O)N[C@@H](C(=O)N[C@H](CCCN)C(=O)N[C@@H](C(=O)N[C@@H](C(=O)N[C@@H](C(=O)N[C@H](C(=O)N[C@@H](Cc1ccccc1)C(=O)N[C@H](CCCN)C(=O)NC(C(=O)N[C@H](C(=O)NC(C(=O)NCC(=O)N[C@@H](CC(C)C)C(=O)N[C@H](C)C(=O)NC(C(=O)O)C1CCC(O)C(Cl)C1)C1CCC(O)CC1)[C@H](C)O)C1CCC(O)CC1)[C@H](C)O)C1CCC(O)CC1)C1CCC(O)CC1)[C@H](C)O)C1CCC(O)CC1 (some centres not stated) [RAMOPLANIN [A2 shown; 2mM]]
normalized intracellular growth: 1.17
//
compound: CC(O)(CC(=O)O)CC(=O)O
normalized intracellular growth: 1.02
//
compound: Cn1nnnc1SCC1=C(C(=O)O)N2C(=O)[C@@H](NC(=O)[C@H](O)c3ccccc3)[C@H]2SC1
normalized intracellular growth: 1.02
//
compound: CN(C)c1cnccn1
normalized intracellular growth: 0.904
//
compound: CO/N=C(\C(=O)N[C@@H]1C(=O)N2C(C(=O)O)=C(C[N+]3(C)CCCC3)CS[C@H]12)c1csc(N)n1
normalized intracellular growth: 0.0358
//
compound: O=C1/C(=C/c2cccs2)CCC/C1=C\c1cccs1
normalized intracellular growth: 1.06
//
compound: C=C1c2c(Cl)ccc(O)c2C(=O)C2=C(O)[C@]3(O)C(=O)C(C(N)=O)=C(O)[C@@H](N(C)C)[C@@H]3[C@@H](O)[C@H]12.O=C(O)c1cc(S(=O)(=O)O)ccc1O
normalized intracellular growth: 0.0256
//
compound: COCC1=C(C(=O)OC(C)OC(=O)OC(C)C)N2C(=O)[C@@H](NC(=O)/C(=N\OC)c3csc(N)n3)[C@H]2SC1 (some centres not stated)
normalized intracellular growth: 1.06
//
compound: Cc1nnc(SCC2=C(C(=O)O)N3C(=O)[C@@H](NC(=O)Cn4cnnn4)[C@H]3SC2)s1
normalized intracellular growth: 1.2
//
compound: Nc1ccc(C(=O)O)cc1
normalized intracellular growth: 0.829
//
compound: CC(=O)OCC1=C(C(=O)O)N2C(=O)[C@@H](NC(=O)CSc3ccncc3)[C@H]2SC1
normalized intracellular growth: 0.957
//
compound: Nc1ncnc(Nc2ccc(Cl)cc2)n1
normalized intracellular growth: 0.945
//
compound: O=c1[nH]c(=O)c2ccccc2o1
normalized intracellular growth: 1.02
//
compound: S=C=Nc1ccc(N=C=S)cc1
normalized intracellular growth: 1.01
//
compound: OCc1cccnc1
normalized intracellular growth: 0.97
//
compound: CC(=O)OCC1=C(C(=O)O)N2C(=O)[C@@H](NC(=O)Cc3cccs3)[C@H]2SC1
normalized intracellular growth: 1.01
//
compound: COc1ccc(C(=O)c2ccccc2O)c(O)c1
normalized intracellular growth: 1.24
//
compound: Cc1cc(-c2ccc(/N=N/c3ccc4c(S(=O)(=O)O)cc(S(=O)(=O)O)c(N)c4c3O)c(C)c2)ccc1/N=N/c1ccc2c(S(=O)(=O)O)cc(S(=O)(=O)O)c(N)c2c1O
normalized intracellular growth: 1.36
//
compound: CCOC(=O)C1=C[C@@H](OC(CC)CC)[C@H](NC(C)=O)[C@@H](N)C1
normalized intracellular growth: 1.33
//
compound: CCCCC(CC)COc1ccc(-c2nc(-c3ccc(OC)cc3)nc(-c3ccc(OCC(CC)CCCC)cc3O)n2)c(O)c1 (configuration not stated)
normalized intracellular growth: 1.1
//
compound: CN(C)[C@@H]1C(O)=C(C(N)=O)C(=O)[C@@]2(O)C(O)=C3C(=O)c4c(O)cccc4[C@@](C)(O)[C@H]3[C@H](O)[C@@H]12
normalized intracellular growth: 0.0331
//
compound: CO/N=C(\C(=O)N[C@@H]1C(=O)N2C(C(=O)OCOC(=O)C(C)(C)C)=C(/C=C\c3scnc3C)CS[C@H]12)c1csc(N)n1
normalized intracellular growth: 0.0689
//
compound: CC=CC1=C(C(=O)O)N2C(=O)[C@@H](NC(=O)[C@H](N)c3ccc(O)cc3)[C@H]2SC1
normalized intracellular growth: 0.738
//
compound: CC(=O)OCC(=O)[C@@]1(O)[C@H](OC(C)=O)C[C@H]2[C@@H]3CCC4=CC(=O)C=C[C@]4(C)[C@@]3(F)[C@@H](O)C[C@@]21C
normalized intracellular growth: 1.2
//
compound: CC1(C)S[C@@H]2[C@H](N3C(=O)[C@@H](c4ccccc4)NC3(C)C)C(=O)N2[C@H]1C(=O)O
normalized intracellular growth: 0.974
//
compound: Cc1nc(C)c(Cl)c(O)c1Cl
normalized intracellular growth: 1.16
